target: KRAS G12C (Homo sapiens, UniProt P01116, G12C); construct: Kras (aa 2-169), GST; experiment: KRAS G12C nucleotide exchange assay (SOS1 mediated, HTRF); details: 1 hr pre-incubation at RT, read-out: IC50 (inhibition of KRas G12C)
Sequence (P01116 2-169 isoform P01116-2 G12C): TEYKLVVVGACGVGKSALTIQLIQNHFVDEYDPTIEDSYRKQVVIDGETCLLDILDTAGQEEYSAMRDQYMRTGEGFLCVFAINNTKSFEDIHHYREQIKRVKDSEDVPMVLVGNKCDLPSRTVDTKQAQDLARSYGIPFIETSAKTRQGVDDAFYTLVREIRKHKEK
Observed property: IC50

- Compound: "Cc1ccnc(C(C)C)c1-n1c(=O)nc(N2CCN(C(=O)/C=C/CN(C)CCOCCOCCOCCOCCOCCOCCON(C)C(=O)N3N=C(c4cc(F)ccc4F)SC3(CCCN)c3ccccc3)C[C@@H]2C)c2cc(F)c(-c3c(O)cccc3F)nc21 (some centres unmarked)"
  Target system: "KRAS G12C (Homo sapiens, UniProt P01116, G12C)"
  Observed property: "IC50"
  Value reported: "1 to 5 µM"
- Compound: "C=C(F)C(=O)N1CCN(c2nc(OC[C@@H]3CCCN3CCOCCOCCOCCOCCOCCOCCNC(=O)c3ccc(Nc4ncc5c(n4)N(C4CCCC4)[C@H](CC)C(=O)N5C)c(OC)c3)nc3c2CCN(c2cccc4cccc(Cl)c24)C3)C[C@@H]1CC#N"
  Target system: "KRAS G12C (Homo sapiens, UniProt P01116, G12C)"
  Observed property: "IC50"
  Value reported: "0.1 to 1 µM"

* * *

IC50 for assorted compounds
molecular target: KRAS G12C (Homo sapiens, UniProt P01116, G12C); construct: Kras (aa 2-169), GST; experiment: KRAS G12C nucleotide exchange assay (SOS1 mediated, HTRF); conditions: 1 hr pre-incubation at RT, read-out: IC50 (inhibition of KRas G12C)

- Compound: "CCc1cnn2c(NCc3ccc(OCCOCCOCCOCCOCCN(C)C/C=C/C(=O)N4CCN(c5nc(OC[C@@H]6CCCN6C)nc6c5CCN(c5cccc7cccc(Cl)c57)C6)C[C@@H]4CC#N)nc3)cc(N3CCCC[C@H]3CCO)nc12"
  IC50: "< 100 nM"
- Compound: "C=C(F)C(=O)N1CCN(c2nc(OCC3CCCN3CCOCCOCCOCCOCCOCCOCCOCCOCCNC(=O)c3cccc(-c4ccc5c(N6CCOCC6C)nc(N6CCOCC6C)nc5n4)c3)nc3c2CCN(c2cccc4cccc(Cl)c24)C3)CC1CC#N (centres unmarked)"
  IC50: "100 to 1000 nM"
- Compound: "C=C(F)C(=O)N1CCN(c2nc(OC[C@@H]3CCCN3CCCN3CCN(CCNC(=O)c4ccc(Nc5ncc6c(n5)N(C5CCCC5)[C@H](CC)C(=O)N6C)c(OC)c4)CC3)nc3c2CCN(c2cccc4cccc(Cl)c24)C3)C[C@@H]1CC#N"
  IC50: "< 100 nM"
- Compound: "CCc1cnn2c(NCc3ccc(OCCOCCOCCOCCOCCOCCOCCN(C)C/C=C/C(=O)N4CCN(c5nc(OC[C@@H]6CCCN6C)nc6c5CCN(c5cccc7cccc(Cl)c57)C6)C[C@@H]4CC#N)nc3)cc(N3CCCC[C@H]3CCO)nc12"
  IC50: "< 100 nM"
- Compound: "C=C(F)C(=O)N1CCN(c2nc(OC[C@@H]3CCCN3CCCNC(=O)c3ccc(Nc4ncc5c(n4)N(C4CCCC4)[C@H](CC)C(=O)N5C)c(OC)c3)nc3c2CCN(c2cccc4cccc(Cl)c24)C3)C[C@@H]1CC#N"
  IC50: "100 to 1000 nM"
- Compound: "CCc1cnn2c(NCc3ccc(OCCOCCOCCOCCOCCOCCOCCOC/C=C/C(=O)N4CCN(c5nc(OC[C@@H]6CCCN6C)nc6c5CCN(c5cccc7cccc(Cl)c57)C6)C[C@@H]4CC#N)nc3)cc(N3CCCC[C@H]3CCO)nc12"
  IC50: "1000 to 5000 nM"
- Compound: "Cc1ccnc(C(C)C)c1-n1c(=O)nc(N2CCN(C(=O)/C=C/CN(C)CCOCCOCCOCCOCCOCCOCCOCCOCCON(C)C(=O)N3N=C(c4cc(F)ccc4F)SC3(CCCN)c3ccccc3)C[C@@H]2C)c2cc(F)c(-c3c(O)cccc3F)nc21 (some centres unmarked)"
  IC50: "1000 to 5000 nM"
- Compound: "CN(C/C=C/C(=O)N1CCN(c2nc(OC[C@@H]3CCCN3C)nc3c2CCN(c2cccc4cccc(Cl)c24)C3)C[C@@H]1CC#N)CCOCCOCCOCCOCCON(C)C(=O)N1N=C(c2cc(F)ccc2F)SC1(CCCN)c1ccccc1 (some centres unmarked)"
  IC50: "< 100 nM"

* * *

biological target: KRAS G12C (Homo sapiens, UniProt P01116, G12C); construct: Kras (aa 2-169), GST; test: KRAS G12C nucleotide exchange assay (SOS1 mediated, HTRF); details: 1 hr pre-incubation at RT, read-out: IC50 (inhibition of KRas G12C)
pIC50: −log10 of the molar value.
pIC50 for assorted compounds

- Compound: "C=C(F)C(=O)N1CCN(c2nc(OC[C@@H]3CCCN3CCCOCCOCCn3cc(CNc4cc(N5CCCC[C@H]5CCO)nc5c(CC)cnn45)ccc3=O)nc3c2CCN(c2cccc4cccc(Cl)c24)C3)C[C@@H]1CC#N [Compound I-87]"
  pIC50: "> 7.00"
- Compound: "CC[C@@H]1C(=O)N(C)c2cnc(Nc3ccc(C(=O)NCCOCCOC4CCN(C/C=C/C(=O)N5CCN(c6nc(OC[C@@H]7CCCN7C)nc7c6CCN(c6cccc8cccc(Cl)c68)C7)C[C@@H]5CC#N)CC4)cc3OC)nc2N1C1CCCC1 [Compound I-110]"
  pIC50: "> 7.00"

* * *

target: EGFR (Homo sapiens)
Sequence (P00533 25-1210): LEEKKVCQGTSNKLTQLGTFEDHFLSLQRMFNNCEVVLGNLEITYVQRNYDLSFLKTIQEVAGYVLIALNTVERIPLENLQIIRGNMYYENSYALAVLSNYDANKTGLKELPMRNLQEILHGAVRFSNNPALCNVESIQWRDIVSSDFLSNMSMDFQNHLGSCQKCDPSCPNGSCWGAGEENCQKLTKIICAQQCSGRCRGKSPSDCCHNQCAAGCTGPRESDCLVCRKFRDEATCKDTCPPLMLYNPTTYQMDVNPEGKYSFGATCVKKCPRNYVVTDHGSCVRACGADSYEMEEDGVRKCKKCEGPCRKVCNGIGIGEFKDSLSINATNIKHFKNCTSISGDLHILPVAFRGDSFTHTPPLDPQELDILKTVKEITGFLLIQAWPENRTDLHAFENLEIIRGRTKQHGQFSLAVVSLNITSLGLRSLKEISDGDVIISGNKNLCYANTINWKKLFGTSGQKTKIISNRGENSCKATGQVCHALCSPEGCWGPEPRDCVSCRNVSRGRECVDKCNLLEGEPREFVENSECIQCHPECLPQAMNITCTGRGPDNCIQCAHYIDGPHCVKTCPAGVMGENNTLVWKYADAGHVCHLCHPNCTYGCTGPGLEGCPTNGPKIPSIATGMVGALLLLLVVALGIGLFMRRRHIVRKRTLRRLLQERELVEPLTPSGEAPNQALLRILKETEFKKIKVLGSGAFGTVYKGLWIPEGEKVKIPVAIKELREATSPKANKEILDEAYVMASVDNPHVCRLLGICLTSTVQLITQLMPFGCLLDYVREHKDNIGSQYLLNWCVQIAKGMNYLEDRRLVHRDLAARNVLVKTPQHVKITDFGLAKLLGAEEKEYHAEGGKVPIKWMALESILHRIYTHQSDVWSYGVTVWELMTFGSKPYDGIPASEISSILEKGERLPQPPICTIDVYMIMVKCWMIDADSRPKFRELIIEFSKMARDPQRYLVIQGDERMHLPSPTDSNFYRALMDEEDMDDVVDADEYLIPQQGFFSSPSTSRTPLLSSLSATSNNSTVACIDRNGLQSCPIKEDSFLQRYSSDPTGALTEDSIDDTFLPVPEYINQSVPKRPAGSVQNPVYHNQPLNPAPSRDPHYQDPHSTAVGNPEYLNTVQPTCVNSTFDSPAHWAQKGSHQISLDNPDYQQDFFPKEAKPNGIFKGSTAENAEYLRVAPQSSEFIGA

- Structure: "C=CC(=O)N[C@@H]1CN(c2nc(Nc3cn(CCCNC(=O)c4ccc(Nc5ncc6c(n5)N(C5CCCC5)[C@H](CC)C(=O)N6C)c(OC)c4)nc3OC)c3ncn(C)c3n2)C[C@H]1F"
  Kd: "500 to 2500 nM"
- Structure: "C=CC(=O)N[C@@H]1CN(c2nc(Nc3cn(CCCN4CCN(CCCNC(=O)c5ccc(Nc6ncc7c(n6)N(C6CCCC6)[C@H](CC)C(=O)N7C)c(OC)c5)CC4)nc3OC)c3ncn(C)c3n2)C[C@H]1F"
  Kd: "< 50 nM"
- Structure: "C=CC(=O)N[C@@H]1CN(c2nc(Nc3cn(CCOCCOCCOCCOCCOCCOCCOc4ccc(CNc5cc(N6CCCC[C@@H]6CCO)nc6c(CC)cnn56)cn4)nc3OC)c3ncn(C)c3n2)C[C@H]1F"
  Kd: "50 to 500 nM"

* * *

pKd for assorted compounds
molecular target: EGFR WT (amino acids 669-1011, Accession Number NP_005219.2) (Homo sapiens, UniProt P00533)
Sequence (P00533 669-1011): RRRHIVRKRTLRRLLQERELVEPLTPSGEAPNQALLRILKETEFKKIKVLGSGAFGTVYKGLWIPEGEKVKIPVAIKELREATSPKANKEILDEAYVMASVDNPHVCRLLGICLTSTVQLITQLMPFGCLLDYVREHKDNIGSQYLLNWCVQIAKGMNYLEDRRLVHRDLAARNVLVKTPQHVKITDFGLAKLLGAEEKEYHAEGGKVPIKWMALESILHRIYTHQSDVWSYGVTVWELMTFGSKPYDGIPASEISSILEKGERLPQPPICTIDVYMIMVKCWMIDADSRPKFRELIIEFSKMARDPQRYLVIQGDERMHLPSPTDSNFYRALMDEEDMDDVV
pKd: −log10 of the molar value.

- Compound: "C=CC(=O)Nc1cc(Nc2nccc(-c3cn(C)c4ccccc34)n2)c(OC)cc1N(C)CCN(C)CCNC(=O)c1ccc(Nc2ncc3c(n2)N(C2CCCC2)[C@H](CC)C(=O)N3C)c(OC)c1 [Compound I-115]"
  pKd: "< 5.60"
- Compound: "C=CC(=O)Nc1cc(Nc2nccc(-c3cn(C)c4ccccc34)n2)c(OC)cc1N(C)CCN(C)CCOCCOCCOCCOCCOCCOCCNS(=O)(=O)c1ccc(Nc2ncc(Br)c(Nc3cccc(F)c3C(N)=O)n2)cc1 [Compound I-34]"
  pKd: "6.30 to 7.30"
- Compound: "C=CC(=O)Nc1cc(Nc2nccc(-c3cn(C)c4ccccc34)n2)c(OC)cc1N(C)CCN(C)CCCN1CCN(CCCNC(=O)c2ccc(Nc3ncc4c(n3)N(C3CCCC3)[C@H](CC)C(=O)N4C)c(OC)c2)CC1 [Compound I-122]"
  pKd: "5.60 to 6.30"
- Compound: "CC[C@@H]1C(=O)N(C)c2cnc(Nc3ccc(C(=O)NCCCN4CCN(CCCN(C)C/C=C/C(=O)N[C@@H]5CN(c6nc(Nc7cn(C)nc7OC)c7ncn(C)c7n6)C[C@H]5F)CC4)cc3OC)nc2N1C1CCCC1 [Compound I-152]"
  pKd: "5.60 to 6.30"
- Compound: "C=CC(=O)Nc1cc(Nc2nccc(-c3cn(C)c4ccccc34)n2)c(OC)cc1N(C)CCN(C)CCOCCOCCOCCOCCOCCOCCNC(=O)c1ccc(Nc2ncc3c(n2)N(C2CCCC2)[C@H](CC)C(=O)N3C)c(OC)c1 [Compound I-113]"
  pKd: "5.60 to 6.30"
- Compound: "C=CC(=O)Nc1cc(Nc2nccc(-c3cn(C)c4ccccc34)n2)c(OC)cc1N(C)CCN(C)CCOCCOCCOCCOCCNS(=O)(=O)c1ccc(Nc2ncc(Br)c(Nc3cccc(F)c3C(N)=O)n2)cc1 [Compound I-32]"
  pKd: "6.30 to 7.30"
- Compound: "C=CC(=O)N[C@@H]1CN(c2nc(Nc3cn(CCOCCON(C)C(=O)N4N=C(c5cc(F)ccc5F)S[C@@]4(CCCN)c4ccccc4)nc3OC)c3ncn(C)c3n2)C[C@H]1F [Compound I-134]"
  pKd: "> 7.30"
- Compound: "CC[C@@H]1C(=O)N(C)c2cnc(Nc3ccc(C(=O)NCCOCCOCCOCCOCCOCCOCCN(C)C/C=C/C(=O)Nc4cc(Nc5nccc(-c6cn(C)c7ccccc67)n5)c(OC)cc4N(C)CCN(C)C)cc3OC)nc2N1C1CCCC1 [Compound I-118]"
  pKd: "< 5.60"
- Compound: "C=CC(=O)N[C@@H]1CN(c2nc(Nc3cn(CCOCCOCCOCCOCCNC(=O)c4ccc(Nc5ncc6c(n5)N(C5CCCC5)[C@H](CC)C(=O)N6C)c(OC)c4)nc3OC)c3ncn(C)c3n2)C[C@H]1F [Compound I-125]"
  pKd: "6.30 to 7.30"
- Compound: "COc1cc(N(C)CCN(C)C)c(NC(=O)/C=C/CN(C)CCCN2CCN(CCCON(C)C(=O)N3N=C(c4cc(F)ccc4F)S[C@@]3(CCCN)c3ccccc3)CC2)cc1Nc1nccc(-c2cn(C)c3ccccc23)n1 [Compound I-146]"
  pKd: "5.60 to 6.30"
